# assay remarks: Single-dose intravenous HCQ pharmacokinetics in dogs
# Assay type: in vivo, Beagle dogs
# condition label: both sexes, beagle, dog, whole blood, 5 mg/kg/day, 2-compartment model, read-out: Apparent terminal t1/2 (converted)
readout label: half-life (h)
Express it in h; write the number only.

Quick check: half-life of CCN(CCO)CCCC(C)Nc1ccnc2cc(Cl)ccc12 (stereo not shown) [HCQ, hydroxychloroquine] ?
20.8

====

# assay remarks: Single-dose intravenous HCQ pharmacokinetics in rats
# Assay type: in vivo
# condition label: both sexes, rat; rats, intravenous, 10 mg/kg/day, single day, whole blood
readout label: Cmax

Returns the measured Cmax for the input molecule. Input: CCN(CCO)CCCC(C)Nc1ccnc2cc(Cl)ccc12 (stereo not shown) [HCQ, hydroxychloroquine]
1740 ng/mL

====

# assay remarks: Single-dose intravenous HCQ pharmacokinetics in rats
# Type: in vivo
# condition label: both sexes, rat, whole blood; rats, intravenous, 5 mg/kg/day; 2-compartment model; read-out: Apparent Terminal t1/2 (converted)
readout label: half-life (min)
Write down the numeric answer in min and omit the unit.

For the compound shown here, CCN(CCO)CCCC(C)Nc1ccnc2cc(Cl)ccc12 (stereo not shown) [HCQ, hydroxychloroquine] , give the reported half-life.
450

====

# assay remarks: Single-dose intravenous HCQ pharmacokinetics in dogs
# Format: in vivo, Beagle dogs
# condition label: both sexes, beagle, dog, 10 mg/kg/day, single day, whole blood
readout label: Cmax (ng/mL)
Number in ng/mL, nothing else.

Consider the compound CCN(CCO)CCCC(C)Nc1ccnc2cc(Cl)ccc12 (stereo not shown) [HCQ, hydroxychloroquine] and give its measured Cmax.
2700

====

# assay remarks: Single-dose intravenous HCQ pharmacokinetics in dogs
# Assay type: in vivo, Beagle dogs
# condition label: both sexes, beagle, dog, whole blood, 5 mg/kg/day, single day
readout label: clearance (mL/min/kg)
Field: numeric (mL/min/kg). Do not append units.

Param item = CCN(CCO)CCCC(C)Nc1ccnc2cc(Cl)ccc12 (stereo not shown) [HCQ, hydroxychloroquine] ; retrieve measured clearance.
5

====

# assay remarks: Single-dose intravenous HCQ pharmacokinetics in dogs
# Type: in vivo, Beagle dogs
# condition label: both sexes, beagle, dog, whole blood, 5 mg/kg/day, single day
readout label: Tmax (min)
// return numeric value only (unit: min, not printed)

So what does the record say about Tmax for CCN(CCO)CCCC(C)Nc1ccnc2cc(Cl)ccc12 (stereo not shown) [HCQ, hydroxychloroquine] ?
30

====

# assay remarks: Single-dose intravenous HCQ pharmacokinetics in dogs
# Type: in vivo, Beagle dogs
# condition label: both sexes, beagle, dog, whole blood, 10 mg/kg/day, single day
readout label: clearance (L/h/kg)
// units = L/h/kg; emit number, no label

Entry CCN(CCO)CCCC(C)Nc1ccnc2cc(Cl)ccc12 (stereo not shown) [HCQ, hydroxychloroquine] has what clearance?
0.1

====

# assay remarks: Single-dose intravenous HCQ pharmacokinetics in rats
# Format: in vivo
# condition label: both sexes, rat, whole blood; rats, intravenous, 10 mg/kg/day, single day
readout label: clearance
Quote the value and follow it with the unit of measurement.

Entry under review: CCN(CCO)CCCC(C)Nc1ccnc2cc(Cl)ccc12 (stereo not shown) [HCQ, hydroxychloroquine] . Reported clearance?
21.7 mL/min/kg

====

# assay remarks: Single-dose intravenous HCQ pharmacokinetics in dogs
# Type: in vivo, Beagle dogs
# condition label: both sexes, beagle, dog, whole blood, 10 mg/kg/day, 2-compartment model, read-out: Apparent terminal t1/2 (converted)
readout label: half-life (h)
Numbers only; they are read as h.

# input molecule: CCN(CCO)CCCC(C)Nc1ccnc2cc(Cl)ccc12 (stereo not shown) [HCQ, hydroxychloroquine] ; wanted: its half-life
35
